- testedSystem: human LAG3 expressed on cells (human) (UniProt P18627)
- Sequence (P18627 23-525): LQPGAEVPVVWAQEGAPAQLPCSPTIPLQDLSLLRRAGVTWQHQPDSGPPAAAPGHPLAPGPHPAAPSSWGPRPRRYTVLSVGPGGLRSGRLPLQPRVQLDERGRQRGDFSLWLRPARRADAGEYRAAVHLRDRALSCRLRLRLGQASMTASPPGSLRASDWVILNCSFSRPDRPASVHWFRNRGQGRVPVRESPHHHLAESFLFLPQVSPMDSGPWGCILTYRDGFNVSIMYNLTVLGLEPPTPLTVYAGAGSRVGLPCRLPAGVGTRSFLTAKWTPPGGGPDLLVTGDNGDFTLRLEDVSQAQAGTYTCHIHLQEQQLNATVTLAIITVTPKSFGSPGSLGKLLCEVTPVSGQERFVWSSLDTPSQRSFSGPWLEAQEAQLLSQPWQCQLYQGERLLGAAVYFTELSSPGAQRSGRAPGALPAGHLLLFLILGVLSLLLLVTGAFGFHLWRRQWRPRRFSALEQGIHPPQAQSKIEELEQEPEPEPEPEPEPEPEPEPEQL
- experimentalProtocol: cell-based or functional assay
propertyMeasured: IL-2, % of BMS, at 0.082304527 ug/mL (%)
Quick reminder: number only, in %, skip the unit.

binder	IL-2, % of BMS, at 0.082304527 ug/mL, %
sdAb fusion 25-2015-1 (Fc fusion, not shown: a dimerising Fc or GST) QLQLVESGGGLVQAGGSLRLSCAASGSIESFSFMGWYRQAPGKQRELVAGFTGAASLSFSTYTDAVKGRFTISRDNAKNTVYLQMNSLKPEDTAVYFCNVDPWSQSWPGRYWGQGTQVTVSSGGGGSQLQLVESGGGLAQTGGSLRLSCAAAGFTFDDTATGWFRQAPGKNREGVACISSSDGRIHYIDSAKGRFTISKDNAKKTVYLQMDSLKPEDTAVYYCAAARKGSTDCQGAIWGSWGQGTQVIVSSEPKSCDKTHTCPPCPAPELLG	10.4

Now consider the entry below.
Query: Supply reported IL-2, % of BMS, at 0.082304527 ug/mL belonging to this binder: sdAb fusion 25-2015-3 (Fc fusion, not shown: a dimerising Fc or GST) QLQLVESGGGLVQAGGSLRLSCAASGSIESFSFMGWYRQAPGKQRELVAGFTGAASLSFSTYTDAVKGRFTISRDNAKNTVYLQMNSLKPEDTAVYFCNVDPWSQSWPGRYWGQGTQVTVSSGGGGSGGGGSGGGGSQLQLVESGGGLAQTGGSLRLSCAAAGFTFDDTATGWFRQAPGKNREGVACISSSDGRIHYIDSAKGRFTISKDNAKKTVYLQMDSLKPEDTAVYYCAAARKGSTDCQGAIWGSWGQGTQVIVSSEPKSCDKTHTCPPCPAPELLG
Response: 10.3
